Target: T1, cynomolgus LAG-3 expressed on HEK 293F cells (cynomolgus)
T1 construct: whole, on cells
Test: FACS, HEK 293F cynoLAG-3 cells
REPORTED PROPERTY: Max-MFI (MFI)
Respond with the bare value in MFI.

Would you please look over these solved cases?
>>> numeric_readout("mAb749 (antibody, V domains shown, murine hybridoma anti-LAG-3 mAb) VH: EVQLQQSGAELVRPGASVKVSCTASDFNIKDDYVHWVKQRPEQGLEWIGWIDPENGDTEYASKFQGKATITADTSSNTAYLQLSSLTSEDTAVYFCSTWDAEENYWGQGTTLSVSS VL: DIVLTQAAPSVPVTPGESVSISCRSSKSLLHSNGNTYLYWFLQRPGQSPQVLIYRMSNLASGVPVRFSGSGSGTAFTLRISRVEAEDVGVYYCMQHLEYPFTFGSGTKLEIK")
67.4
>>> numeric_readout("mAb746 (antibody, V domains shown, murine hybridoma anti-LAG-3 mAb; also called rnAb746; 3502-mAb746) VH: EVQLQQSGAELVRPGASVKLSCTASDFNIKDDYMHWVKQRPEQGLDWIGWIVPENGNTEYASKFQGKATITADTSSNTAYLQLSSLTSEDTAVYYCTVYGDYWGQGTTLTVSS VL: DIQMTQSPSSLSASLGERVSLNCRASQEISGYLSWLQQKSDGTIKRLIYAASTLDSGVPKRFSGSRSGSDYSLTISSLESEDFADYYCLQYASYPLTFGAGTKLELK")
66.2

The record that follows has no Max-MFI shown yet.
-- ask Query: Max-MFI; subject: mAb744 (antibody, V domains shown, murine hybridoma anti-LAG-3 mAb; also called rnAb744) VH: QVQLQQSGAELVRPGTSVTLSCKASGYTFTDYEMHWMKQTPVHGLEWIGAIDPATGGTAYNQKFKGKAILTADKSSSTAYMDFRSLTSEDSAVYYCIRWGTTVFPYWGQGTLVTVS VL: DVVLTQTPLSLPVNIGDQASISCKSTKSLLNSDGFTYLDWYLQKPGQSPQLLIYLVSNRFSGVPDRFSGSGSGTDFTLKISRVEAEDLGVYYCFQSNYLPWTFGGGTKLEIK
-- reply 37.8
